# Test system: A549/ATCC NSCLC
# protocol.summary: NCI-60 one-dose screen, 48 h (100 = growth as untreated, 0 = no growth, -100 = all killed)
# experimental.context: 10 µM unless noted
About 83,000 compounds went through this panel and 20% of them were active in at least one assay; those are over-represented in the sample as a whole.
result.type: growth (%)

1. O=C(N/N=C/c1ccco1)c1[nH]c2ccc(Br)cc2c1-c1ccccc1; 35.4
2. Clc1ccc2oc3c(NCCCn4ccnc4)c4ccccc4nc3c2c1; 32.7
3. CCOC(=O)c1c(Nc2ccccc2)nn2c(-c3ccco3)c(C#N)cnc12; 95.2
4. C#C[C@]1(O)CC[C@H]2[C@@H]3CC=C4c5sc(-c6ccc(F)cn6)nc5CC[C@]4(C)[C@H]3CC[C@@]21C; 37.2
5. CN1CCN(Cc2ccc(NC(=O)c3cncc(C#Cc4cnc5[nH]ncc5c4)c3)cc2C(F)(F)F)CC1; 34.3
6. C/C(=C(/c1ccc(Cl)cc1)c1ccc(OCCN)cc1)c1ccc(C)cc1; 97.7
7. CN1CCN(Cc2ccc(NC(=O)c3cncc(C#Cc4cnc5ccc(N6CCSCC6)nn45)c3)cc2C(F)(F)F)CC1; -24.5
8. N/C(=N\c1nc2c(Br)cccc2s1)C(Br)Br; 21.8

###

# Tested on: NCI-H522 lung
# protocol.summary: NCI-60 one-dose screen, 48 h
# experimental.context: 10 µM unless noted
Compounds without any hit were thinned out: in the full panel of roughly 83,000, 20% have a hit. Calls of active or inactive are those of the source. Rule for the calls: active = growth percent below 10; inactive = the rest.
Outcomes: active, inactive

1. NC(=O)c1cc(-c2ccc3ncnc(N4CCc5cc(F)c(Cl)cc54)c3c2)cnc1N; inactive
2. Clc1ccc2oc3c(NCCCn4ccnc4)c4ccccc4nc3c2c1; inactive
3. CN(C)S(=O)(=O)c1oc(-c2ccccc2)nc1C#N; active
4. COc1cc(/C=C/C(=O)c2cc(OC)c(OC)c(OC)c2)ccc1OCc1ccc(F)cc1; inactive
5. O=c1[nH]c2ccccc2cc1CSc1ccccc1Nc1nccc(-c2ccc(C(F)(F)F)cc2)n1; inactive
6. Cc1sc2c(c1C)c(=O)nc1c(-c3nc(-c4ccc(F)cc4)no3)n[nH]n12; inactive
7. CN(C)c1ccc(/C=c2\sc3nc4ccccc4n3c2=O)cc1; inactive
8. C[C@@H]1CN(c2ccc3ncc(C#Cc4cncc(C(=O)Nc5ccc(CN6CCN(C)CC6)c(C(F)(F)F)c5)c4)n3n2)C[C@H](C)O1; active
9. O=C(CCCN1C(=O)/C(=C/c2ccccc2F)SC1=S)N1CCOCC1; inactive
10. CC(=O)c1ccc(Nc2nc(SC(C)C)nc(-c3ccccc3)c2C#N)cc1; inactive
11. CN(C)CCCNc1c2ccccc2nc2c1oc1ccc(Cl)cc12; inactive
12. CS(=O)(=O)c1ccc(-n2cc(/C=C/C(=O)c3ccc(NC(=O)CO[N+](=O)[O-])cc3)c(-c3ccc(Cl)cc3)n2)cc1; inactive
13. N#Cc1nc(-c2ccccc2)oc1S(=O)(=O)N1CCN(CCc2ccccn2)CC1; active
14. c1ccc(CNc2ncnc3ccc(-c4cnc5[nH]ncc5c4)cc23)cc1; inactive
15. CCN1CCN(S(=O)(=O)c2oc(-c3ccc(Cl)cc3)nc2C#N)CC1; active
16. O=C1C2=C(C(=O)c3c(O)cccc31)C(c1ccco1)c1sc(=O)[nH]c1S2 (configuration not stated); active
17. O=C(N/N=C/c1ccc([N+](=O)[O-])o1)c1[nH]c2ccc(Br)cc2c1-c1ccccc1; active
18. Cc1[nH]nc2ncc(C#Cc3cncc(C(=O)Nc4ccc(CN5CCN(C)CC5)c(C(F)(F)F)c4)c3)cc12; inactive
19. CCOC(=O)c1c(Nc2ccccc2)nn2c(N)c(C#N)c(-c3ccc(OC)cc3)nc12; inactive
20. CN1CCc2c(sc3ncnc(N/N=C/c4ccc(Cl)c(Cl)c4)c23)C1; inactive
21. Cc1c(Nc2nnc(SCC(=O)Nc3sc4c(c3C#N)CCCC4)s2)c(=O)n(-c2ccccc2)n1C; inactive
22. O=C(CCN1C(=O)/C(=C/c2ccccc2)SC1=S)N1CCOCC1; inactive
23. O=C(c1ccc(O)cc1)C1[C@H](c2ccc(Cl)cc2)[C@@H](c2ccccc2)NC12C(=O)Nc1ccc(Cl)cc12 (some centres not stated); inactive
24. Cc1cc(C(=O)Nc2sc3c(c2C(N)=O)CCC(=O)C3)ccc1OCCN1CCCCC1; inactive
25. COc1ccc(-c2nc3ccc(-c4nnc(SCC(=O)Nc5ccc(C(=O)/C=C/c6ccc(Cl)cc6)cc5)o4)cc3[nH]2)cc1OC; inactive
26. Cc1c(NC(=O)CSc2nc3sc4c(c3c(=O)n2-c2ccc(Cl)cc2)CCCC4)c(=O)n(-c2ccccc2)n1C; inactive
27. CN1C(=O)N(c2ccccc2)C2N=C(N/N=C/c3ccccc3)SC21 (configuration not stated); active

###

# System: NCI-H522 lung
# protocol.summary: NCI-60 one-dose screen, 48 h
# experimental.context: 10 µM unless noted
About 83,000 compounds went through this panel and 20% of them were active in at least one assay; those are over-represented in the sample as a whole. The source made the active and inactive calls. Rule for the calls: active = growth percent below 10; inactive = the rest.
Outcome codes: t for active, f for inactive

1. COc1ccccc1C(=O)CSc1nc(Nc2ccc(S(N)(=O)=O)cc2)c2ccccc2n1; f
2. COc1cc(OC)c(C2SCC(=O)N2Nc2ncnc3ccccc23)cc1OC (stereo unspecified); f
3. CCN1C(=S)N(CC)C2C1N=C(SC)N2/N=C/C=C/c1ccccc1[N+](=O)[O-] (stereo unspecified); f
4. O=C(N/N=C/c1ccc[nH]1)c1[nH]c2ccc(Br)cc2c1-c1ccccc1; t
5. O=C(CN1CCOCC1)NNc1ncnc2ccccc12; t
6. Clc1ccc2c(OCCCN3CCOCC3)c3oc4ccccc4c3nc2c1; f
7. CCCSc1nc(Nc2ccc(/C(C)=N\NC(N)=S)cc2)c(C#N)c(-c2ccc(OC)cc2)n1; f
8. NS(=O)(=O)c1ccc(Nc2nc(SCC(=O)c3ccc(Cl)cc3)nc3ccccc23)cc1; f
9. O=C(CSc1nc2sc3c(c2c(=O)n1-c1ccc(Cl)cc1)CCCC3)NNC(=O)Nc1cccc(C(F)(F)F)c1; f
10. COc1cc(-c2ccc3ncnc(NC(C)c4ccccc4)c3c2)cnc1OC (stereo unspecified); f
11. CCOc1ccc2nc(NC(=O)c3ccc(C(F)(F)F)cc3)sc2c1; f

###

# Tested on: HS 578T breast
# protocol.summary: NCI-60 one-dose screen, 48 h (100 = growth as untreated, 0 = no growth, -100 = all killed)
# experimental.context: 10 µM unless noted
This is part of a sample that, as a whole, favours compounds with a hit. Of some 83,000 tested, about 20% had one in any assay.
# growth per record follows
result.type: growth (%)

1. Nc1cc(-c2c[nH]c3ccccc23)nc2cc(-c3c[nH]c4ccccc34)nn12; 81.1
2. COc1ccc(C(=O)/C=C/c2ccc(OCc3ccc(Cl)cc3)c(OC)c2)cc1OC; 82
3. CSCCC(C(=O)O)N1C(=O)/C(=C/c2ccc(O)c(O)c2)SC1=S (stereo not drawn); 104
4. C=C1CC[C@H]2[C@@](C)(CCC3OC(c4ccc(OCc5cn(C6CC(OC(C)=O)C(OC(C)=O)C(COC(C)=O)O6)nn5)cc4)OC[C@]32C)[C@@H]1/C=C/C1=CCOC1=O (stereo partly drawn); 75.7
5. COc1ccccc1/C=C/C=N/NC1=NC2C(S1)N(C)C(=O)N2C (stereo not drawn); 3.97
6. C=CCn1c(SCC(=O)c2ccccc2)nnc1-c1c[nH]c2ccccc12; 97
7. COc1ccc(-c2csc(N/N=C/c3c(-c4ccc(S(C)(=O)=O)cc4)nc4ccccn34)n2)cc1; 118
8. COc1ccc(/C=C2\SC(=Nc3cc(C)[nH]n3)NC2=O)cc1; 91.4

###

# System: MOLT-4 leukemia
# protocol.summary: NCI-60 one-dose screen, 48 h
# experimental.context: 10 µM unless noted
About 83,000 compounds went through this panel and 20% of them were active in at least one assay; those are over-represented in the sample as a whole. Activity calls are given as the source filed them. How the source made its calls: active means growth percent below 10; inactive means the rest.
Classes used: Yes (active), No (inactive)

1. O=C(c1ccc(O)cc1)C1[C@H](c2ccc(Cl)cc2)[C@@H](c2ccccc2)NC12C(=O)Nc1ccc(Cl)cc12 (stereo partly specified); No
2. CC1=C(C)C(=O)C(Nc2cccc(C(F)(F)F)c2)=C(Cl)C1=O; No
3. NC(=O)c1c(NC(=O)c2ccc(C3CCCCC3)cc2)sc2c1CCC(=O)C2; No
4. C=C1CC[C@H]2[C@@](C)(CCC3OC(c4ccc(OCc5cn(C6CC(OC(C)=O)C(OC(C)=O)C(COC(C)=O)O6)nn5)cc4)OC[C@]32C)[C@@H]1/C=C/C1=CCOC1=O (stereo partly specified); No
5. Clc1ccc2c(NCCCN3CCOCC3)c3oc4ccccc4c3nc2c1; No
6. CCN1CCN(S(=O)(=O)c2oc(-c3ccc(Cl)cc3)nc2C#N)CC1; Yes
7. COc1ccc(NC(=O)c2sc3nc(-c4cnccn4)cc(-c4cccs4)c3c2N)cc1; No
8. CN1CCN(Cc2ccc(NC(=O)c3cncc(C#Cc4cnc5[nH]ncc5c4)c3)cc2C(F)(F)F)CC1; No
9. CC1=C(C)C(=O)C(Nc2ccccc2)=C(Cl)C1=O; No
10. COc1ccc(C(=O)/C=C/c2ccc(OCc3ccc(C)cc3)c(OC)c2)cc1OC; No
11. Clc1ccc2c(NCCCn3ccnc3)c3oc4ccc(Cl)cc4c3nc2c1; No
12. COc1cccc(OC)c1-c1nnn(C)c1C(=S)N1CCN(c2ccc([N+](=O)[O-])cc2Cl)CC1; No
13. N#Cc1c(-c2ccc(F)cc2)nc2c(C#N)c(Nc3ccccc3)nn2c1N; No
14. COC(=O)C(Cc1ccccc1)NS(=O)(=O)/N=C1\NC(=O)NC1=C(Cl)Cl (stereo unspecified); No
15. CSc1ccc2c(c1)N(C(=O)/C(C#N)=C/c1c[nH]c3ccccc13)c1ccccc1S2; No
16. Nc1cc(-c2c[nH]c3ccc(Cl)cc23)nc2cc(-c3c[nH]c4ccc(Cl)cc34)nn12; No
17. COc1ccc(NC2=CC(=O)C(C)=C(C)C2=O)cc1; No
18. COc1cc(OC)c(C2SCC(=O)N2Nc2ncnc3ccccc23)cc1OC (stereo unspecified); No
19. Cc1nc(-c2cc3ccccc3oc2=O)ccc1C(=O)/C=C/c1ccc(Cl)c(Cl)c1; No
20. CN1CCN(Cc2ccc(NC(=O)c3cncc(C#Cc4cnc5ccc(N6CCSCC6)nn45)c3)cc2C(F)(F)F)CC1; Yes
21. C#Cc1nc(C2=C(C)C(=O)/C(=N/OC(C)=O)C2)cs1; No
22. O=C(Nc1nc2ccc(O)cc2s1)c1cccc(C(F)(F)F)c1; No
23. Clc1ccc(Cc2nnc3sc(-c4cccnc4)nn23)cc1; No
24. c1ccc(CNc2ncnc3ccc(-c4cnc5[nH]ncc5c4)cc23)cc1; No
25. COc1ccc(COc2ccc(/C=C3/C(=O)Nc4cc(Cl)ccc43)cc2)cc1; No
26. OC1CCN(CCCOc2c3ccc(Cl)cc3nc3c2oc2ccccc23)CC1; Yes
